The reported numbers originate from paper PMC2010749.

Tested on: BHK 21 Syrian hamster fibroblast line
assay_comment: DNA, RNA and protein syntheses in BHK monolayers exposed to filtered medium preincubated with Cr compounds;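 note: DNA, RNA and protein synthesis in BHK cultures assessed by incorporation of labelled precursors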
Type: cell-based
setup_conditions: preincubated 48 h with 0.5 mg/ml; cells exposed 24 h
As shown below, each of these molecules has a reported DNA synthesis, preinc. in MEM value.
metric_name: DNA synthesis, preinc. in MEM

molecule="[O]=[Cr](=[O])([O-])[O-].[O]=[Pb].[Pb+2] [Chromium orange, Basic lead chromate]" reported_value="62 % of controls"
molecule="[Cl][Cr]([Cl])[Cl] [Chromium chloride]" reported_value="100 % of controls"
molecule="[K+].[K+].[O]=[Cr](=[O])([O-])[O][Cr](=[O])(=[O])[O-] [Potassium dichromate]" reported_value="4 % of controls"
molecule="O=S(=O)([O-])[O-].O=S(=O)([O-])[O-].O=S(=O)([O-])[O-].[Cr+3].[Cr+3] [Chromium sulphate]" reported_value="82 % of controls"
